Tested on: Vero E6
measurement_description: cell viability relative to DMSO; higher = less toxic
settings: 72 h; 100 nM
# key: entry, value: cell viability

molecule: COc1cc2ncnc(Nc3ccc(Oc4ccccc4)cc3)c2cc1OC
cell viability [%]: 109

molecule: CC(C)CNc1nc(-c2cccc3ncccc23)cn2c(-c3ccc(C(=O)NC4CC4)cc3)cnc12
cell viability [%]: 90.1

molecule: O=C(O)CCC(=O)O
cell viability [%]: 95.5

molecule: Nc1ccn([C@@H]2O[C@H](CO)[C@@H](O)[C@@H]2O)c(=O)n1
cell viability [%]: 93.5

molecule: CN(C(=O)c1c(O)c2ccccc2n(C)c1=O)c1ccccc1
cell viability [%]: 98.2

molecule: C[C@@H]1CN(Cc2ccc(F)cc2)CCN1C(=O)COc1ccc(Cl)cc1NC(N)=O
cell viability [%]: 93.3

molecule: CC(=O)CC(=O)O [lithium-acetoacetate]
cell viability [%]: 103

molecule: Cc1cc(C(C)(C)C)c(O)c(C)c1CC1=NCCN1
cell viability [%]: 102

molecule: CC(C)(C)NCc1cc(Nc2ccnc3cc(Cl)ccc23)c2c(c1O)CCCC2 [naphthoquine-phosphate]
cell viability [%]: 108

====

Test system: Calu-3
measurement_description: cell viability relative to DMSO; higher = less toxic
settings: 72 h; 1 nM
endpoint_label: cell viability (%)

compound: CN1CCN(c2c(F)cc3c(=O)c(C(=O)O)cn(CCF)c3c2F)CC1
endpoint_label: cell viability
endpoint_unit: %
experimental_value: 88
//
compound: C/C(=C(\CCOP(=O)(O)O)SC(=O)c1ccccc1)N(C=O)Cc1cnc(C)nc1N
endpoint_label: cell viability
endpoint_unit: %
experimental_value: 97.2
//
compound: CC(=O)CC(=O)O [lithium-acetoacetate]
endpoint_label: cell viability
endpoint_unit: %
experimental_value: 98.2
//
compound: CO/N=C1/C[C@@H](C(=O)NC[C@@H](O)c2ccccc2)N(C(=O)c2ccc(-c3ccccc3C)cc2)C1
endpoint_label: cell viability
endpoint_unit: %
experimental_value: 96.2
//
compound: O=C1NC(=O)/C(=C/c2ccc3nccc(-c4ccncc4)c3c2)S1
endpoint_label: cell viability
endpoint_unit: %
experimental_value: 103
//
compound: COc1ccccc1C(=O)Nc1cccc(NC(=O)c2cccc(C)c2)c1
endpoint_label: cell viability
endpoint_unit: %
experimental_value: 99
//
compound: O=c1cccc2n1C[C@H]1C[C@@H]2CN(CCN2C[C@@H]3C[C@H](C2)c2cccc(=O)n2C3)C1
endpoint_label: cell viability
endpoint_unit: %
experimental_value: 87.1
//
compound: CCOC(=O)c1cc(C#N)c(N2CCC(C(=O)NS(=O)(=O)Cc3ccccc3)CC2)nc1C
endpoint_label: cell viability
endpoint_unit: %
experimental_value: 96.2
//
compound: CCC(CC)O[C@@H]1C=C(C(=O)O)C[C@H](N)[C@H]1NC(C)=O [oseltamivir-carboxylate]
endpoint_label: cell viability
endpoint_unit: %
experimental_value: 98.9
//
compound: N#CN1CCCC1
endpoint_label: cell viability
endpoint_unit: %
experimental_value: 97.6
//
compound: CC(=O)OCC1=C(C(=O)O)N2C(=O)[C@@H](NC(=O)CCCC(N)C(=O)O)C2SC1 (some centres not stated)
endpoint_label: cell viability
endpoint_unit: %
experimental_value: 93.2
//
compound: Cc1cc2nc3c(=O)[nH]c(=O)nc-3n(C)c2cc1C=O
endpoint_label: cell viability
endpoint_unit: %
experimental_value: 104
//
compound: N=C(N)NCCCC[C@@H]1NC(=O)CCSSC[C@@H](C(N)=O)NC(=O)[C@@H]2CCCN2C(=O)[C@H](Cc2c[nH]c3ccccc23)NC(=O)[C@H](CC(=O)O)NC(=O)CNC1=O [eptifibatide]
endpoint_label: cell viability
endpoint_unit: %
experimental_value: 96.4
//
compound: Cc1cc(C)c(NC(=O)C2CC3CCC2C3)c(C)c1 (configuration not stated)
endpoint_label: cell viability
endpoint_unit: %
experimental_value: 105
//
compound: C[C@H](CCC(=O)O)[C@H]1CC[C@H]2[C@@H]3[C@H](O)C[C@@H]4C[C@H](O)CC[C@]4(C)[C@H]3C[C@H](O)[C@]12C
endpoint_label: cell viability
endpoint_unit: %
experimental_value: 87
//
compound: O=C1C(c2ccccn2)=[N+]([O-])c2ccccc21
endpoint_label: cell viability
endpoint_unit: %
experimental_value: 95.2
//
compound: CN1CCC(OC(c2ccccc2)c2ccccc2)CC1
endpoint_label: cell viability
endpoint_unit: %
experimental_value: 97.3
//
compound: Cn1cc(C[C@@H](N)C(=O)O)c2ccccc21
endpoint_label: cell viability
endpoint_unit: %
experimental_value: 107
//
compound: CN1CCN(S(=O)(=O)c2ccc(-c3cnc(N)c(C(=O)Nc4cccnc4)n3)cc2)CC1
endpoint_label: cell viability
endpoint_unit: %
experimental_value: 98.2
//
compound: Cc1ccc(C(=O)Nc2ccc(S(=O)(=O)O)c3cc(S(=O)(=O)O)cc(S(=O)(=O)O)c23)cc1NC(=O)c1cccc(NC(=O)Nc2cccc(C(=O)Nc3cc(C(=O)Nc4ccc(S(=O)(=O)O)c5cc(S(=O)(=O)O)cc(S(=O)(=O)O)c45)ccc3C)c2)c1
endpoint_label: cell viability
endpoint_unit: %
experimental_value: 96.3
//
compound: CCN1CCCC1CNC(=O)c1cc(S(=O)(=O)CC)c(N)cc1OC (configuration not stated) [amisulpride]
endpoint_label: cell viability
endpoint_unit: %
experimental_value: 96.4
//
compound: O=C(NCCN1CCC2(CC1)C(=O)NCN2c1cccc(F)c1)c1ccc2ccccc2c1
endpoint_label: cell viability
endpoint_unit: %
experimental_value: 100
//
compound: c1cc(-c2cnn3cc(-c4ccc(OCCN5CCCCC5)cc4)cnc23)ccn1
endpoint_label: cell viability
endpoint_unit: %
experimental_value: 102
//
compound: N#C[C@H](O[C@@H]1O[C@H](CO[C@@H]2O[C@H](CO)[C@@H](O)[C@H](O)[C@H]2O)[C@@H](O)[C@H](O)[C@H]1O)c1ccccc1
endpoint_label: cell viability
endpoint_unit: %
experimental_value: 99.2
//
compound: CS(=O)(=O)c1ccc(C2=C(c3ccccc3)C(=O)OC2)cc1
endpoint_label: cell viability
endpoint_unit: %
experimental_value: 99.1
//
compound: NS(=O)(=O)c1nn2cc(-c3ccccc3)nc2s1
endpoint_label: cell viability
endpoint_unit: %
experimental_value: 98
//
compound: O=C(O)c1ccccc1
endpoint_label: cell viability
endpoint_unit: %
experimental_value: 99.4
//
compound: C=CC(=O)N1CCC(Oc2cc3c(Nc4ccc(Cl)c(Cl)c4F)ncnc3cc2OC)CC1
endpoint_label: cell viability
endpoint_unit: %
experimental_value: 67.5
//
compound: CNC(=N)NC(=O)Nc1c(C)cccc1C
endpoint_label: cell viability
endpoint_unit: %
experimental_value: 103
//
compound: CC(C)(C)C(=O)CN1C(=O)[C@H](NC(=O)Nc2cccc(C(=O)O)c2)CN(C2CCCCC2)c2ccccc21 [nastorazepide]
endpoint_label: cell viability
endpoint_unit: %
experimental_value: 96.7
//
compound: CN(C)CCCN1c2ccccc2CCc2ccccc21
endpoint_label: cell viability
endpoint_unit: %
experimental_value: 88.8
//
compound: CC(=O)O[C@]1(C(C)=O)CC[C@H]2[C@@H]3CCC4=CC(=O)CC[C@]4(C)[C@H]3CC[C@@]21C [hydroxyprogesterone-acetate]
endpoint_label: cell viability
endpoint_unit: %
experimental_value: 103

====

Tested on: Vero E6
measurement_description: cell viability relative to DMSO; higher = less toxic
settings: 72 h; 10000 nM

compound: O=C1CCCCCCCCCCCCCCO1
cell viability: 102%
--
compound: Fc1ccc(C(OCCN2CCN(CCCc3ccccc3)CC2)c2ccc(F)cc2)cc1
cell viability: 35.3%
--
compound: CC(C)(C)C(=O)CN1C(=O)[C@H](NC(=O)Nc2cccc(C(=O)O)c2)CN(C2CCCCC2)c2ccccc21 [nastorazepide]
cell viability: 98.8%
--
compound: C=CC1=C(C)C2=CC3=NC(=C(CC(=O)O)C4=NC(=C(C)C4=C(O)O)C=c4[nH]c(c(C)c4CC)=CC1=N2)C(CCC(=O)O)C3C (centres undefined)
cell viability: 92.6%

====

System: HepG2
measurement_description: drug sensitivity score (DSS) for viability; higher = more toxic; extreme values may be limits of the assay
settings: 72 h

molecule: C[C@]12CC[C@H]3[C@@H](CCC4=CC(=O)CC[C@@H]43)[C@@H]1CC[C@@H]2O [Nandrolone]
drug sensitivity score: 0

molecule: CCC(C)(C)C(=O)C(=O)N1CCC[C@H]1C(=O)OCCCc1cccnc1 [GPI-1046]
drug sensitivity score: 0.6

molecule: CN1CCN(c2ccc(OC(F)(F)F)c(Nc3ncc4c(n3)-c3c(c(C(N)=O)nn3CCO)CC4)c2)CC1
drug sensitivity score: 18.8

molecule: Fc1ccc(C(OCCN2CCN(CCCc3ccccc3)CC2)c2ccc(F)cc2)cc1 [vanoxerine]
drug sensitivity score: 4.6

molecule: Nc1ncnc2c1ncn2CCOCP(=O)(O)O [adefovir]
drug sensitivity score: 0

molecule: O=C1Nc2ccc(Cl)cc2[C@@](C#CC2CC2)(C(F)(F)F)O1 [efavirenz]
drug sensitivity score: 0

molecule: CCCCCCCC/C=C\CCCCCCCC(N)=O [oleamide]
drug sensitivity score: 0

molecule: O=C1C(c2ccccn2)=[N+]([O-])c2ccccc21 [PIT]
drug sensitivity score: 0

molecule: O=C(Nc1cccc2cccnc12)c1ccc(N2C(=O)[C@@H]3[C@H](C2=O)[C@H]2C=C[C@@H]3C2)cc1 [exo-IWR-1]
drug sensitivity score: 0.5
